Tested on: mAb 1H11
Experiment: OSTEOMARK competitive immunoassay testing apparent affinity of synthetic peptides for mAb 1H11
Format: binding
Conditions: nanomoles Bone Collagen Equivalents equivalent to 1 μg peptide; back fit into OSTEOMARK standard curve; values between 0.5 and 1 OD averaged
Non-standard residues stand in square brackets, D forms with d. Residues, ends and D or L forms follow the SMILES beside them. pGlu = O=C1CC[C@@H](C(=O)O)N1; Nva = CCC[C@H](N)C(=O)O
PROPERTY_MEASURED: Results: peptide binding to mAb 1H11, 1 μg synthetic peptide = X nmole BCE (nmole BCE)

Solved entries:
COMPOUND	VALUE_REPORTED
CC(C)[C@H](NC(=O)CNC(=O)[C@H](CCC(=O)O)NC(=O)CNC(=O)[C@H](CCC(=O)O)NC(=O)[C@H](Cc1ccc(O)cc1)NC(=O)[C@@H]1CCC(=O)N1)C(=O)NCC(=O)O [SEQ ID NO:30, J Y E G E G V G] ([pGlu]YEGEGVG-OH)	3000
CC(C)[C@H](NC(=O)CNC(=O)[C@@H]1CCCN1C(=O)CNC(=O)[C@H](CC(=O)O)NC(=O)[C@H](Cc1ccc(O)cc1)NC(=O)[C@@H]1CCC(=O)N1)C(=O)NCC(=O)O [SEQ ID NO:13, J Y D G P G V G] ([pGlu]YDGPGVG-OH)	2056

(A) CCC[C@H](NC(=O)CNC(=O)[C@H](CC(=O)O)NC(=O)[C@H](Cc1ccc(O)cc1)NC(=O)[C@@H]1CCC(=O)N1)C(=O)NCC(=O)N[C@H](C(=O)NCC(=O)O)C(C)C [SEQ ID NO:38, J Y D G X^5 G V G] ([pGlu]YDG[Nva]GVG-OH)
(B) CC(C)[C@H](NC(=O)CNC(=O)[C@H](Cc1c[nH]c2ccccc12)NC(=O)CNC(=O)[C@H](CC(=O)O)NC(=O)[C@H](Cc1ccc(O)cc1)NC(=O)[C@@H]1CCC(=O)N1)C(=O)NCC(=O)O [SEQ ID NO:19, J Y D G W G V G] ([pGlu]YDGWGVG-OH)
Which record shows the lower Results: peptide binding to mAb 1H11, 1 μg synthetic peptide = X nmole BCE: the first, A , or the second, B ? Reply with the label of the item you choose.
A
